Provenance of the data: ChEMBL document CHEMBL6153073

The entries below are paired with their reported Activity.
test system: HL-60; assay: Cytotoxicity against human HL-60 cells assessed as cell health index score at 0.005 to 100 uM incubated for 4 hrs by fluorescent dye based flow cytometric analysis; type: toxicity; conditions: hl-60, 4 h, dose 0.005-100 µM
Where a SMILES comes first, the peptide text is derived from it. The star is where a group is joined. Cbz = O=C(OCc1ccccc1)*

compound	measurement
CCOC(=O)CCc1nc2ccccc2c(=O)n1C	0.31
CC(C)C[C@@H](C=O)NC(=O)[C@H](CC(C)C)NC(=O)[C@H](CC(C)C)NC(=O)OCc1ccccc1 [MG-132] (Cbz-Leu-Leu-Leu-aldehyde)	> 0.5
CN1CCc2c(c3ccccc3n2Cc2ccc(C(=O)NO)cc2)C1 [TUBASTATIN A]	> 0.5
CC(C)C[C@H](NC(=O)[C@H](Cc1ccccc1)NC(=O)c1cnccn1)B(O)O [BORTEZOMIB]	> 0.5
CCOC(=O)CCc1nc2ccccc2c(=O)n1Cc1ccc(F)cc1	0.31

Q: Write down the reported Activity of CCOC(=O)CCc1nc2ccccc2c(=O)n1Cc1ccccc1 , test system: HL-60.
A: 0.31

====

assay: Cytotoxicity against green monkey […] cells; format: toxicity, cell-based; conditions: chlorocebus sabaeus
Reported CC50 values follow for various compounds
Please respond with the number in nM and leave the unit unwritten.

CN1CCc2c(c3ccccc3n2Cc2ccc(C(=O)NO)cc2)C1 400

Shifting focus to the compound that follows.
Q: What measured CC50 goes with CC(C)C[C@H](NC(=O)[C@H](Cc1ccccc1)NC(=O)c1cnccn1)B(O)O ?
A: 1200

====

target: Protein deacetylase HDAC6 (Homo sapiens, UniProt Q9UBN7); assay: Displacement of FITC-labeled C-terminal ubiquitin LRLRGG peptide from HDAC6-ubiquitin binding domain (1109 to 1215 residues) (unknown origin) extracted from Escherichia coli BL21 (DE3) by FPPD assay
Sequence (Q9UBN7 whole entry, the tested form may be a part): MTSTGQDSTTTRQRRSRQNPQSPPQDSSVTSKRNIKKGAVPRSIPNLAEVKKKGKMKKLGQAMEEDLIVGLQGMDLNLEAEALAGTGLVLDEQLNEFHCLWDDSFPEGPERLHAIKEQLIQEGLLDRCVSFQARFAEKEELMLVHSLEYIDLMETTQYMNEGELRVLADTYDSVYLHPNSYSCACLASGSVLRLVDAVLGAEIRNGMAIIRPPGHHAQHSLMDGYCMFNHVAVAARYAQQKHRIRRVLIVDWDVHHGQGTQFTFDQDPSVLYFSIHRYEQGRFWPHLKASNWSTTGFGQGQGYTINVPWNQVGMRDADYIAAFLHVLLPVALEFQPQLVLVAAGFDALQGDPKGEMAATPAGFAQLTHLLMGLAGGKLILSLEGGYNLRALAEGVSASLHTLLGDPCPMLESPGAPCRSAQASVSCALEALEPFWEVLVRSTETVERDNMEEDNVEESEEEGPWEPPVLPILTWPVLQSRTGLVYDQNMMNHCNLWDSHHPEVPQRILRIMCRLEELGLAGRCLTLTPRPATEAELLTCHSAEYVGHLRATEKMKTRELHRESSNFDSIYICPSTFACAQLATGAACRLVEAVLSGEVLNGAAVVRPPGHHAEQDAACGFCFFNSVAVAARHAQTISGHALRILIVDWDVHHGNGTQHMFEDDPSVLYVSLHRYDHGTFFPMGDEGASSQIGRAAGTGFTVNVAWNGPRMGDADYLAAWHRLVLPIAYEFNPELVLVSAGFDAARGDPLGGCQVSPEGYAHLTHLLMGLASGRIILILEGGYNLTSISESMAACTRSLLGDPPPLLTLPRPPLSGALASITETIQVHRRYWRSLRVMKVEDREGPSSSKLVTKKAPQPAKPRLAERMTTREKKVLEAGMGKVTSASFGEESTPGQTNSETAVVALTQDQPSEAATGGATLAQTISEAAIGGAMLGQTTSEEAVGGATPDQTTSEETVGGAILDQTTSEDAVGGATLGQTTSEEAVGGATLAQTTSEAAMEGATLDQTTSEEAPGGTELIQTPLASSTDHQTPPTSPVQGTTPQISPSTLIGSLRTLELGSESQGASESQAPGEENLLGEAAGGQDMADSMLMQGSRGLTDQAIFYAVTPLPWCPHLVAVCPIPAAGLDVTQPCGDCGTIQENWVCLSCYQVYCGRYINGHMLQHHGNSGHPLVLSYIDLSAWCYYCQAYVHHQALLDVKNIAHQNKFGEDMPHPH
The label is yes (1) for IC50 below 70 µM and no (0) for IC50 equal to or exceeding 70 µM.

Reference set, count: 6
compound	assay.target	category.label
O=C(O)CCc1nc2ccccc2c(=O)n1Cc1ccc(F)cc1	Protein deacetylase HDAC6 (Homo sapiens, UniProt Q9UBN7)	no (0)
CCn1c(CCC(=O)O)nc2ccccc2c1=O	Protein deacetylase HDAC6 (Homo sapiens, UniProt Q9UBN7)	yes (1)
O=C(O)CCn1c2c(c3ccccc31)CS(=O)(=O)CC2	Protein deacetylase HDAC6 (Homo sapiens, UniProt Q9UBN7)	no (0)
O=C(O)CCn1c2c(c3cc(-c4ccc(F)cc4)ccc31)CS(=O)(=O)CC2	Protein deacetylase HDAC6 (Homo sapiens, UniProt Q9UBN7)	no (0)
CCCn1c(CCC(=O)O)nc2ccccc2c1=O	Protein deacetylase HDAC6 (Homo sapiens, UniProt Q9UBN7)	yes (1)
Cn1c(CCC(=O)O)nc2ccccc2c1=O	Protein deacetylase HDAC6 (Homo sapiens, UniProt Q9UBN7)	yes (1)

Q: Lab log: compare recorded IC50 with 70 µM; is it strictly lower for O=C(O)CCc1nc2ccccc2c(=O)n1Cc1ccccc1 ?
A: yes (1)

Q: Ok, now O=C(O)CCC1C(=O)N(Cc2ccccc2)c2ccccc21 (stereo not given)
A: no (0)

Q: Okay, and O=C(O)CCn1c2c(c3cc(F)ccc31)CS(=O)(=O)CC2 ?
A: no (0)

====

molecular target: Protein deacetylase HDAC6 (Homo sapiens, UniProt Q9UBN7); experiment: Inhibition of HDAC6 deacetylase domain 2 (unknown origin) using fluorogenic HDAC substrate incubated for 15 to 60 mins by fluorimetric analysis
parameter: IC50 (nM)
Quick note: give the figure in nM, leave out the unit.

Q: // query IC50 value for entry O=C(NO)c1ccc(Cn2c3c(c4ccccc42)CS(=O)(=O)CC3)cc1
A: 19
